test system: 786-0; assay: NCI tumour cell line growth inhibition, 48 h
The source made the active and inactive calls. Rule as the data show it: active = GI50 up to about 1.1 µM and inactive = higher.
A correct response names exactly one class from t for active, f for inactive

Cc1ccc(CC2(C(=O)O)Cc3ccc(C)cc3C2)cc1 (stereo not given)	f
N#Cc1cc2c(n(C3OC(CO)C(O)C(O)C3O)c1=S)CCC2 (stereo not given)	f
Cc1c(C)c(CC(=O)N2CC2)c(C)c(C)c1CC(=O)N1CC1	f

[in] Could you kindly confirm the outcome this assay logged for C=C[C@@]1(O)CCCC[C@@H]1CC(Sc1ccccc1)Sc1ccccc1 ?
[out] f

[in] Could you kindly confirm the outcome this assay logged for COC(=O)c1c(C)cccc1C1CN=NC12Cc1cccc(C)c1C2=O (stereo not given) ?
[out] f

[in] Could you kindly confirm the outcome this assay logged for O=C(O)CC1NC(/C(=C/c2ccccc2)NC(=O)c2ccccc2)OC1=O (stereo not given) ?
[out] f

[in] Could you kindly confirm the outcome this assay logged for O=[N+]([O-])c1cc(Cc2cc([N+](=O)[O-])c3cccnc3c2O)c(O)c2ncccc12 ?
[out] f

[in] Could you kindly confirm the outcome this assay logged for O=C1/C(=C/c2ccc(O)cc2)CCc2ccc([N+](=O)[O-])cc21 ?
[out] f

[in] Could you kindly confirm the outcome this assay logged for O/N=C(\CC(O)(C(F)(F)F)C(F)(F)F)c1cccs1 ?
[out] f

[in] Could you kindly confirm the outcome this assay logged for COc1ccc(CCc2cc(OC)c(OC)c(OC)c2)cc1 ?
[out] t

[in] Could you kindly confirm the outcome this assay logged for CN(C)C1=Nc2ccccc2C(=S)N2CSCC12 (stereo not given) ?
[out] f

[in] Could you kindly confirm the outcome this assay logged for CCN(CC)c1ccc(/N=N/c2ccc(-c3nc4cccnc4o3)cc2)cc1 ?
[out] f

[in] Could you kindly confirm the outcome this assay logged for CC1(C)O[C@H]2[C@@H]3N=C(c4ccccc4)O[C@@H]3C=C[C@H]2O1 ?
[out] f

[in] Could you kindly confirm the outcome this assay logged for [O-][n+]1ccc(NO)c2ccccc21 ?
[out] f
